tested.target: IRAK4 (Homo sapiens, UniProt Q9NWZ3)
Sequence (Q9NWZ3 1-460): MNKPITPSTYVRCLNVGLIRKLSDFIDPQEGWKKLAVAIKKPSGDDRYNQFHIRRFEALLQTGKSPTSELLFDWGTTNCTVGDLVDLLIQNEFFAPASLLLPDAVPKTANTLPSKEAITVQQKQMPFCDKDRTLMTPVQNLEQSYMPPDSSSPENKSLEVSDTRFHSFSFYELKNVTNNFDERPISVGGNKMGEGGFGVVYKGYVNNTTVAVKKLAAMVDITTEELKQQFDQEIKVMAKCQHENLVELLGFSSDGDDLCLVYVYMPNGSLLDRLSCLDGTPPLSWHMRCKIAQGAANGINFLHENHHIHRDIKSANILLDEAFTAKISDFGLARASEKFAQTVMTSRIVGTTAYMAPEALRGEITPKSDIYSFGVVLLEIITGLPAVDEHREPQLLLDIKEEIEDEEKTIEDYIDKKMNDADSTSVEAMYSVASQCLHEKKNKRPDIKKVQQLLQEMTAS
run.description: OCI-LY-10 degradation assay (western blot, % IRAK4 degraded after 4 hours)
Type: cell-based
Design: endogenous in cells; host or cells: OCI-LY10
stated.conditions: OCI-LY10 cells, 4 hours, 0.1 uM compound
experimental.endpoint: OCI-LY10 % IRAK4 Degradation (0.1 uM)

Some solved entries appear below for comparison.
{"compound": "O=C1CCC(n2c(=O)oc3c(CCCOCCOCCNC(=O)c4ccc(-n5cc(NC(=O)c6coc(-c7ccnc(NCC(F)(F)F)c7)n6)c(C(F)F)n5)cc4)cccc32)C(=O)N1 (centres unmarked)", "tested.target": "IRAK4 (Homo sapiens, UniProt Q9NWZ3)", "recorded.value": "A (>50% degradation)"}
{"compound": "NC(=O)c1nn(-c2ccc(C(=O)NCCCCCNCCNc3cccc4c3C(=O)N(C3CCCNC3=O)C4=O)cc2)cc1NC(=O)c1coc(-c2ccnc(NCC(F)(F)F)c2)n1 (centres unmarked)", "tested.target": "IRAK4 (Homo sapiens, UniProt Q9NWZ3)", "recorded.value": "C (<20% degradation)"}
{"compound": "NC(=O)c1nn(-c2ccc(CNCCOCCCc3cccc4c3CN(C3CCC(=O)NC3=O)C4=O)cc2)cc1NC(=O)c1coc(-c2ccnc(NCC(F)(F)F)c2)n1 (centres unmarked)", "tested.target": "IRAK4 (Homo sapiens, UniProt Q9NWZ3)", "recorded.value": "A (>50% degradation)"}
{"compound": "CN(CCOCCOCCCc1ccc2c(c1)C(=O)N(C1CCC(=O)NC1=O)C2=O)C(=O)c1ccc(-n2cc(NC(=O)c3coc(-c4ccnc(NCC(F)(F)F)c4)n3)c(C(F)F)n2)cc1 (centres unmarked)", "tested.target": "IRAK4 (Homo sapiens, UniProt Q9NWZ3)", "recorded.value": "A (>50% degradation)"}
{"compound": "O=C1CCC(N2C(=O)c3cccc(N4CCN(CCOCCOCCNCc5ccc(-n6cc(NC(=O)c7coc(-c8ccnc(NCC9CC9)c8)n7)c(C(F)F)n6)cc5)CC4)c3C2=O)C(=O)N1 (centres unmarked)", "tested.target": "IRAK4 (Homo sapiens, UniProt Q9NWZ3)", "recorded.value": "C (<20% degradation)"}

// below: OCI-LY10 % IRAK4 Degradation (0.1 uM) requested for another compound
Under IRAK4 (Homo sapiens, UniProt Q9NWZ3): OCI-LY10 % IRAK4 Degradation (0.1 uM) value of O=C1CCC(N2C(=O)c3cccc(NCCOCCOCCOCCOCCNC(=O)c4ccc(-n5cc(NC(=O)c6coc(-c7ccnc(NCC8CC8)c7)n6)c(C(F)F)n5)cc4)c3C2=O)C(=O)N1 (centres unmarked) ?
A (>50% degradation)

###

run.description: Pharmacokinetics in Sprague Dawley rats (plasma and brain concentrations, PK parameters)
Format: in vivo
stated.conditions: Sprague-Dawley, rat, plasma, iv, 3 mg/kg, Sprague Dawley rat, iv 3 mg/kg, plasma, 1 h, Rat 3; read-out: Concentration Rat 3
experimental.endpoint: concentration at 1 h (ng/mL)
# number only, unit ng/mL dropped from output

Request the reported concentration at 1 h associated with O=C1CCC(N2C(=O)c3cccc(NCCOCCOCCNCc4ccc(-n5cc(NC(=O)c6coc(-c7ccnc(NCC8CC8)c7)n6)c(C(F)F)n5)cc4)c3C2=O)C(=O)N1 (stereo not shown)
207

###

run.description: Pharmacokinetics in CD-1 mice (plasma concentrations, PK parameters)
Format: in vivo
stated.conditions: CD-1, mouse, plasma, iv, 2 mg/kg, mouse (CD1) iv 2 mg/kg; Mean
Method: Pharmacokinetics for I-127, I-172 and I-210 were determined in Sprague Dawley rats or CD-1 mice by dosing intravenous (IV), subcutaneous (SC) or per oral (PO) using facility SOPs and sampling plasma at required time points. […] Compounds were extracted from plasma, injected on reverse phase HPLC, eluted with a gradient from 5% to 95% acetonitrile in water and quantified by mass spectrometry with internal standard. […]
experimental.endpoint: half-life (h)

a: O=C1CCC(N2C(=O)c3cccc(NCCOCCOCCNCc4ccc(-n5cc(NC(=O)c6coc(-c7ccnc(NCC8CC8)c7)n6)c(C(F)F)n5)cc4)c3C2=O)C(=O)N1 (centres unmarked) [I-210]
b: NC(=O)c1nn(-c2ccc(C(=O)NCCCCCNCCNc3cccc4c3C(=O)N(C3CCC(=O)NC3=O)C4=O)cc2)cc1NC(=O)c1coc(-c2ccnc(NCC(F)(F)F)c2)n1 (centres unmarked) [I-172]
Which shows the larger half-life value: a or b ? // output: label of the selected item
b

###

tested.target: IRAK4 (Homo sapiens)
run.description: OCI-LY-10 degradation assay (western blot, % IRAK4 degraded after 4 hours)
Format: cell-based
Design: endogenous in cells; host or cells: OCI-LY10
stated.conditions: OCI-LY10 cells, 4 hours, 1 uM compound
experimental.endpoint: OCI-LY10 % IRAK4 Degradation (1 uM)

Some solved entries appear below for comparison.
{"compound": "NC(=O)c1nn(-c2ccc(CNCC3CN(CCOCCNc4cccc5c4C(=O)N(C4CCC(=O)NC4=O)C5=O)CCO3)cc2)cc1NC(=O)c1coc(-c2ccnc(NCC(F)(F)F)c2)n1 (centres unmarked) [I-305]", "recorded.value": "A (>50% degradation)"}
{"compound": "CN(CCCc1ccc2c(c1)C(=O)N(C1CCC(=O)NC1=O)C2=O)Cc1ccc(-n2cc(NC(=O)c3coc(-c4ccnc(NCC5CC5)c4)n3)c(C(F)F)n2)cc1 (centres unmarked) [I-369]", "recorded.value": "B (>20-50% degradation)"}
{"compound": "CN(CCNCCCc1ccc2c(c1)C(=O)N(C1CCC(=O)NC1=O)C2=O)C(=O)c1ccc(-n2cc(NC(=O)c3coc(-c4ccncc4)n3)c(C(F)F)n2)cc1 (centres unmarked) [I-378]", "recorded.value": "A (>50% degradation)"}
{"compound": "O=C1CCC(N2C(=O)c3cccc(NC4CN(CCOCCOCCNCc5ccc(-n6cc(NC(=O)c7coc(-c8ccnc(NCC9CC9)c8)n7)c(C(F)F)n6)cc5)C4)c3C2=O)C(=O)N1 (centres unmarked) [I-338]", "recorded.value": "B (>20-50% degradation)"}
{"compound": "CN(CCOCCCc1ccc2c(c1)C(=O)N(C1CCC(=O)NC1=O)C2=O)Cc1ccc(-n2cc(NC(=O)c3coc(-c4ccncc4)n3)c(C(F)F)n2)cc1 (centres unmarked) [I-377]", "recorded.value": "B (>20-50% degradation)"}
{"compound": "O=C1CCC(N2C(=O)c3cccc(NCCNCCOCCNCc4ccc(-n5cc(NC(=O)c6coc(-c7ccnc(NCC8CC8)c7)n6)c(C(F)(F)F)n5)cc4)c3C2=O)C(=O)N1 (centres unmarked) [I-307]", "recorded.value": "C (<20% degradation)"}
{"compound": "Cn1c(=O)n(C2CCC(=O)NC2=O)c2ccc(CCCOCCOCCNCc3ccc(-n4cc(NC(=O)c5coc(-c6ccnc(NCC7CC7)c6)n5)c(C(F)F)n4)cc3)cc21 (centres unmarked) [I-331]", "recorded.value": "C (<20% degradation)"}
{"compound": "O=C1CCC(N2C(=O)c3ccc(NC4CCN(CCOCCOCCOCCNC(=O)c5ccc(-n6cc(NC(=O)c7coc(-c8ccnc(NCC9CC9)c8)n7)c(C(F)F)n6)cc5)CC4)cc3C2=O)C(=O)N1 (centres unmarked) [I-272]", "recorded.value": "A (>50% degradation)"}

Request the reported OCI-LY10 % IRAK4 Degradation (1 uM) associated with CN(CCOCCOCCCc1ccc2c(c1)C(=O)N(C1CCC(=O)NC1=O)C2=O)Cc1ccc(-n2cc(NC(=O)c3coc(-c4ccncc4)n3)c(C(N)=O)n2)cc1 (centres unmarked) [I-309]
A (>50% degradation)

Request the reported OCI-LY10 % IRAK4 Degradation (1 uM) associated with NC(=O)c1nn(-c2ccc(CNCCOCCOCCOCCOCCCc3cccc4c3C(=O)N(C3CCC(=O)NC3=O)C4=O)cc2)cc1NC(=O)c1coc(-c2ccnc(NCC(F)(F)F)c2)n1 (centres unmarked) [I-322]
A (>50% degradation)

Request the reported OCI-LY10 % IRAK4 Degradation (1 uM) associated with O=C1CCC(N2C(=O)c3ccc(CCCNCc4ccc(-n5cc(NC(=O)c6coc(-c7ccnc(NCC8CC8)c7)n6)c(C(F)F)n5)cc4)cc3C2=O)C(=O)N1 (centres unmarked) [I-371]
B (>20-50% degradation)

Data provenance is patent US10874743B2.
